System: U2OS
PROCEDURE_TEXT: Multiplex assay against U2OS
Type: toxicity, cell-based
TEST_SETTINGS: human, 24 h, 10 µM, compound concentration 10 uM, replicate 1
PARAMETER_MEASURED: Population Healthy Nuclei (%)
Write the figure, then the unit, nothing else.

These solved cases illustrate the format of a correct answer.
1. COC(=N)c1nc2ccc3ncnc(Nc4ccc(OC)cc4F)c3c2s1 :: 96%
2. CCn1cc(-c2ccnc3[nH]c(-c4cccc(CN(C)C)c4)cc23)c(-c2ccc(NC(=O)N(C)C)cc2)n1 :: 45%
3. O=C(Nc1ccc(-c2ccnc(Nc3ccc(N4CCOCC4)cc3)n2)cc1)[C@@H]1CCCN1 :: 65%
4. CCN1CCN(Cc2ccc(Nc3ncc(F)c(-c4cc(F)c5nc(C)n(C(C)C)c5c4)n3)nc2)CC1.CS(=O)(=O)O :: 8%

**Query** Name the recorded Population Healthy Nuclei (%) of the compound listed here: C=C1/C(=C\C=C2/CCC[C@]3(C)[C@@H]([C@H](C)/C=C/[C@H](C)C(C)C)CC[C@@H]23)C[C@@H](O)C[C@@H]1O
**Result** 18%

**Query** Name the recorded Population Healthy Nuclei (%) of the compound listed here: CCOC(=O)c1c(C)[nH]c2ccc3c(c12)CN1CCc2cc(OC)ccc2C1O3 (stereo unspecified)
**Result** 49%

**Query** Name the recorded Population Healthy Nuclei (%) of the compound listed here: Cl.O=c1c2cccn2c2ccccc2n1CCCN1CCC(c2ccc(Cl)cc2)CC1
**Result** 45%

**Query** Name the recorded Population Healthy Nuclei (%) of the compound listed here: COc1ccc(-c2ccc3c(N4CCOCC4)nc(N4C[C@@H](C)O[C@@H](C)C4)nc3n2)cc1CO
**Result** 63%
